MEASURED_TARGET: human 5-HT2C-INI (Homo sapiens, UniProt P28335)
Sequence (P28335 33-458): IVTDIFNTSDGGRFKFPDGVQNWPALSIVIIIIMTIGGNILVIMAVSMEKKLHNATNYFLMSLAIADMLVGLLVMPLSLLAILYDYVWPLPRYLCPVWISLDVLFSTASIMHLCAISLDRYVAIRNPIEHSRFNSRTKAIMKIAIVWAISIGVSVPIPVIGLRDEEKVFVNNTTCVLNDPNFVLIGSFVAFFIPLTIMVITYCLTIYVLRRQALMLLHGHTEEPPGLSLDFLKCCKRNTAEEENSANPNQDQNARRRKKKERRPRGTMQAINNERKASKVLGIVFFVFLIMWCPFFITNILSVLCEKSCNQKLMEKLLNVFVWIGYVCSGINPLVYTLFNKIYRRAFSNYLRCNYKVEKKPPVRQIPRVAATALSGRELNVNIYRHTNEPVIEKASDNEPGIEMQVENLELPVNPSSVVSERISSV
ASSAY_PROCEDURE: Phosphoinositide hydrolysis functional assay
MEASUREMENT_CONTEXT: activation of phosphoinositide hydrolysis, stably expressed receptor
QUANTITY: pEC50
Give only the number. pEC50 is defined as minus log10 of concentration in molar units.

As a guide, the following entries are already answered.
chemical_string=CCn1cc(CCN(C)C)c2c(O)ccc(F)c21 quantity=pEC50 reading=8.27
chemical_string=CCCn1cc(CCN(C)C)c2c(O)cc(F)cc21 quantity=pEC50 reading=6.88
chemical_string=CCn1cc(CCN(C)C)c2c(O)cc(F)cc21 quantity=pEC50 reading=9.27
chemical_string=CCCn1cc(CCN(C)C)c2c(O)ccc(F)c21 quantity=pEC50 reading=7.96
chemical_string=CN(C)CCc1cn(C)c2cc(F)cc(O)c12 quantity=pEC50 reading=9.18
chemical_string=CN(C)CCc1cn(C)c2c(F)ccc(O)c12 quantity=pEC50 reading=9.29

Value of pEC50 reported for the compound CN(C)CCc1cn(CC2CC2)c2cc(F)cc(O)c12 is 5.94

Value of pEC50 reported for the compound CC(C)n1cc(CCN(C)C)c2c(O)cc(F)cc21 is 6.23

Values were extracted from patent US8071786B2.
